These measurements were taken from paper PMC4104029.

- TARGET_UNDER_TEST: AMPK α2/α1 HOOK β1γ1 (Homo sapiens, UniProt P54619+P54646, A386E/C382H/K379R/P383T)
- Construct: 6×His (N); made in house; host or cells: E. coli (tricistronic pET15-b construct)
- Sequence (P54646 whole entry K379R/C382H/P383T/A386E): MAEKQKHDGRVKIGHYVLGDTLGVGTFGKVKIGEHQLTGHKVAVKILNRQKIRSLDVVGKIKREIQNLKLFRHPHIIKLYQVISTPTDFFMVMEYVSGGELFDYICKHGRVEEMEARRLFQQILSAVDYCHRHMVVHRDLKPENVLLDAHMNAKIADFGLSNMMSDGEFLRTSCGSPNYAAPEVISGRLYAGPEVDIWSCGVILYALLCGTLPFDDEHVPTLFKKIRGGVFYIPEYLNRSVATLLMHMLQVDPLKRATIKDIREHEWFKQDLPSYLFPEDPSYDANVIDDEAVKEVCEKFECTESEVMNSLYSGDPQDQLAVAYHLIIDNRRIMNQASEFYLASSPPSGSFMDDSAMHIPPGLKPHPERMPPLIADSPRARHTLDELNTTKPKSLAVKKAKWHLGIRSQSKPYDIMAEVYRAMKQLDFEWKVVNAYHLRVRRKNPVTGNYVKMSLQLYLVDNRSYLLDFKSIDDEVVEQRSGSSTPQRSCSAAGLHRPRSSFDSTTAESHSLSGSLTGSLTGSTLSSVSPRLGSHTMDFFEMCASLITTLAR
- Sequence (Q9Y478 whole entry partner): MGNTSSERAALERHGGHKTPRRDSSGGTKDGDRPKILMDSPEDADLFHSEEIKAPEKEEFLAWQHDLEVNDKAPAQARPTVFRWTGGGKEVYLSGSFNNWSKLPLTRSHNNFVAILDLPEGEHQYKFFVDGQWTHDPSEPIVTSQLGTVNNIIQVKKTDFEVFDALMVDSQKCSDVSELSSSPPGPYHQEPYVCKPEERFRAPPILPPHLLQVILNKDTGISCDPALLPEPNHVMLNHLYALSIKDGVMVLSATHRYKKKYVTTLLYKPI
- Sequence (P54619 whole entry): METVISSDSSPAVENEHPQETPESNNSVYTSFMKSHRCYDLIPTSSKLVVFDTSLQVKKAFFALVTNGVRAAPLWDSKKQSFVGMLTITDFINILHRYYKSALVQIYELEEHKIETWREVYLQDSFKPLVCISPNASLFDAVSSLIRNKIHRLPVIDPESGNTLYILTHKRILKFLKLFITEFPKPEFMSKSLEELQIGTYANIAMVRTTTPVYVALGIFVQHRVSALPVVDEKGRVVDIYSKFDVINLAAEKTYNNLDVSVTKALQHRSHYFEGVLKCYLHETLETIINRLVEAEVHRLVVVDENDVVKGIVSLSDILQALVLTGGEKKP
- TEST_DESCRIPTION: Chimeric AMPK complex activation assay
- Type: biochemical
- MEASUREMENT_SETUP: complex expressed in E. coli; read-out: EC50, allosteric activation
pEC50: −log10 of the molar value.
MEASUREMENT_NAME: pEC50

COMPOUND	MEASUREMENT_NAME	REPORTED_RESULT
Nc1ncnc2c1ncn2[C@@H]1O[C@H](COP(=O)(O)O)[C@@H](O)[C@H]1O [AMP, reference compound]	pEC50	5.85
